system under test: 5'-nucleotidase (Homo sapiens, UniProt P21589)
Sequence (P21589 whole entry): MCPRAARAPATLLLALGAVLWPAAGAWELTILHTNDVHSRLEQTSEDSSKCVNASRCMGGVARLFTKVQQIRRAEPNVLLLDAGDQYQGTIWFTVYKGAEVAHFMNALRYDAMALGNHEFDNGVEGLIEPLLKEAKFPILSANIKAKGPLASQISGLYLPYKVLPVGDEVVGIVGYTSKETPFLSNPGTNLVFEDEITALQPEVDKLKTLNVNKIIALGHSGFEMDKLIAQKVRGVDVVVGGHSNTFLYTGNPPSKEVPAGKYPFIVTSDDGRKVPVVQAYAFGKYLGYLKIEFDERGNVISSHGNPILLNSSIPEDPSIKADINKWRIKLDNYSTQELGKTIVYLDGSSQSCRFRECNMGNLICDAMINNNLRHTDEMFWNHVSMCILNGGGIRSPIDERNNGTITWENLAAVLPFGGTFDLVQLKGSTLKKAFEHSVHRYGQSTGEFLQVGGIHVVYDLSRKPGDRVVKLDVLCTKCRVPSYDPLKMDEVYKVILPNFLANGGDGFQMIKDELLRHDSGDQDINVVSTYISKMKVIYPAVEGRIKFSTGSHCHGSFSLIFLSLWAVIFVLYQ
assay info: Inhibition of recombinant human ecto-5' nucleotidase expressed in COS7 cell membranes assessed as inorganic phosphate release using AMP as substrate preincubated for 10 mins followed by substrate addition and measured after 20 mins by malachite green dye based spectrophotometry
pIC50: −log10 of the molar value.
Consider the following compounds and their measured pIC50 readings.
recorded endpoint: pIC50

• Cc1[nH]nc2c1C1(C(=O)N(C)c3ccc(F)cc31)C(C#N)=C(N)N2 (stereo not given) = 6.59
• CN1C(=O)C2(C(C#N)=C(N)Nc3n[nH]cc32)c2cc(F)ccc21 (stereo not given) = 6.34
• Cc1[nH]nc2c1C1(C(=O)N(C)c3ccc(OC(F)(F)F)cc31)C(C#N)=C(N)N2 (stereo not given) = 6.74
• CN1C(=O)C2(C(C#N)=C(N)Nc3n[nH]cc32)c2ccccc21 (stereo not given) = 6.16
• CN1C(=O)C2(C(C#N)=C(N)Nc3n[nH]cc32)c2cc(OC(F)(F)F)ccc21 (stereo not given) = 6.82
